- tgt: M1 muscarinic receptor (Homo sapiens, UniProt P11229)
- Construct: expressed in transfected cells; host or cells: CHO (M1-CHO)
- protocol.summary: Functional mobilization of intracellular calcium (FLIPR), M1-CHO cells
- Assay type: cell-based
- condition.parameters: 100% efficacy is the maximum response obtained with the Carbachol control
property: Emax

Example entries begin here.
{"compound": "CC(C)OC(=O)N1CCCC(N2CCC3(CC2)CN(C(=O)N(C)C)c2ccccc23)CC1 (centres unmarked) [compound 70]", "Emax": "25 to 100%"}
{"compound": "CN(C)C(=O)N1CC2(CCN(C[C@@H]3CCN(c4cnccn4)C3)CC2)c2ccccc21 [compound 109]", "Emax": "25 to 100%"}
{"compound": "C#CCOC(=O)N1CCC(N2CCC3(CC2)CN(C(=O)N(C)C)c2ccccc23)CC1 [compound 92]", "Emax": "> 100%"}
{"compound": "CN(C)C(=O)N1CC2(CCN(C3CCN(c4nc5ccccc5o4)CC3)CC2)c2ccccc21 [compound 118]", "Emax": "25 to 100%"}

Ask | So what's the measured Emax for this one? CN(C)C(=O)N1CC2(CCN(C3CC4CCC(C3)N4C(=O)OCC(F)F)CC2)c2ccccc21 (centres unmarked) [compound 49]
Reply | 25 to 100%

Ask | So what's the measured Emax for this one? CCOC(=O)N1C2CCC1CC(N1CCC3(CCN(C(=O)N(C)C)c4ccccc43)CC1)C2 (centres unmarked) [compound 27]
Reply | 25 to 100%

Ask | So what's the measured Emax for this one? CC(C)OC(=O)N1CC[C@@H](CN2CCC3(CC2)CN(C(=O)N(C)C)c2ccccc23)C1 [compound 56]
Reply | 25 to 100%

Ask | So what's the measured Emax for this one? CCc1nsc(N2CCC(N3CCC4(CCN(C(=O)N(C)C)c5ccccc54)CC3)CC2)n1 [compound 7]
Reply | 25 to 100%

Ask | So what's the measured Emax for this one? Cc1nsc(C2CCC(N3CCC4(CC3)CN(C(=O)N(C)C)c3ccccc34)CC2)n1 (centres unmarked) [compound 74]
Reply | 25 to 100%

---

- tgt: M1 muscarinic receptor (Homo sapiens)
- Construct: expressed in transfected cells; host or cells: CHO (M1-CHO)
- protocol.summary: Functional mobilization of intracellular calcium (FLIPR), M1-CHO cells
- Format: cell-based
- condition.parameters: 100% efficacy is the maximum response obtained with the Carbachol control
property: Emax

Example entries begin here.
{"compound": "CCOC(=O)N1CCCC(N2CCC3(CC2)CN(C(=O)N(C)C)c2ccccc23)CC1 (stereo not shown)", "Emax": "25 to 100%"}
{"compound": "Cc1ncc(N2CC[C@H](CN3CCC4(CC3)CN(C(=O)N(C)C)c3ccccc34)C2)nc1C", "Emax": "< 25%"}
{"compound": "C#CCOC(=O)N1CC[C@H](CN2CCC3(CC2)CN(C(=O)N(C)C)c2ccccc23)C1", "Emax": "25 to 100%"}
{"compound": "C#CCOC(=O)N1CCCC(N2CCC3(CC2)CN(C(=O)N(C)C)c2ccccc23)CC1 (stereo not shown)", "Emax": "> 100%"}

Ask | So what's the measured Emax for this one? CC(C)OC(=O)N1CC[C@H](CN2CCC3(CC2)CN(C(=O)N(C)C)c2ccccc23)C1
Reply | 25 to 100%

Ask | So what's the measured Emax for this one? CN(C)C(=O)N1CC2(CCN(C3CCN(C(=O)OCC(F)F)CC3)CC2)c2ccccc21
Reply | 25 to 100%

Ask | So what's the measured Emax for this one? CCCOC(=O)N1CCC(N2CCC3(CC2)CN(C(=O)N(C)C)c2ccccc23)CC1
Reply | 25 to 100%

Ask | So what's the measured Emax for this one? C#CCOC(=O)N1C2CCC1CC(N1CCC3(CC1)CN(C(=O)N(C)C)c1ccccc13)C2 (stereo not shown)
Reply | 25 to 100%

Ask | So what's the measured Emax for this one? CCc1nsc(N2CC[C@@H](CN3CCC4(CC3)CN(C(=O)N(C)C)c3ccccc34)C2)n1
Reply | 25 to 100%

Ask | So what's the measured Emax for this one? Cc1ncc(N2CCC(N3CCC4(CCN(C(=O)N(C)C)c5ccccc54)CC3)CC2)nc1C
Reply | 25 to 100%

Ask | So what's the measured Emax for this one? Cc1nsc(N2C3CCC2CC(N2CCC4(CCN(C(=O)N(C)C)c5ccccc54)CC2)C3)n1 (stereo not shown)
Reply | 25 to 100%

Ask | So what's the measured Emax for this one? CCOC(=O)N1CC[C@H](CN2CCC3(CC2)CN(C(=O)N(C)C)c2ccccc23)C1
Reply | 25 to 100%

Ask | So what's the measured Emax for this one? Cc1cncc(N2CCC(N3CCC4(CCN(C(=O)N(C)C)c5ccccc54)CC3)CC2)n1
Reply | 25 to 100%

Ask | So what's the measured Emax for this one? Cc1csc(N2CCC(N3CCC4(CC3)CN(C(=O)N(C)C)c3ccccc34)CC2)n1
Reply | 25 to 100%

Ask | So what's the measured Emax for this one? CCCOC(=O)N1C2CCC1CC(N1CCC3(CC1)CN(C(=O)N(C)C)c1ccccc13)C2 (stereo not shown)
Reply | 25 to 100%

Ask | So what's the measured Emax for this one? COC(=O)N1CCCC(N2CCC3(CC2)CN(C(=O)N(C)C)c2ccccc23)CCC1
Reply | 25 to 100%

Ask | So what's the measured Emax for this one? COCCOC(=O)N1CCCC(N2CCC3(CC2)CN(C(=O)N(C)C)c2ccccc23)CC1 (stereo not shown)
Reply | 25 to 100%

Ask | So what's the measured Emax for this one? CC#CCOC(=O)N1CCC(N2CCC3(CCN(C(=O)N(C)C)c4ccccc43)CC2)CC1
Reply | 25 to 100%

---

Each entry below carries its reported Emax.
- tgt: M1 muscarinic receptor (Homo sapiens, UniProt P11229)
- Construct: expressed in transfected cells; host or cells: CHO (M1-CHO)
- Sequence (P11229 1-460): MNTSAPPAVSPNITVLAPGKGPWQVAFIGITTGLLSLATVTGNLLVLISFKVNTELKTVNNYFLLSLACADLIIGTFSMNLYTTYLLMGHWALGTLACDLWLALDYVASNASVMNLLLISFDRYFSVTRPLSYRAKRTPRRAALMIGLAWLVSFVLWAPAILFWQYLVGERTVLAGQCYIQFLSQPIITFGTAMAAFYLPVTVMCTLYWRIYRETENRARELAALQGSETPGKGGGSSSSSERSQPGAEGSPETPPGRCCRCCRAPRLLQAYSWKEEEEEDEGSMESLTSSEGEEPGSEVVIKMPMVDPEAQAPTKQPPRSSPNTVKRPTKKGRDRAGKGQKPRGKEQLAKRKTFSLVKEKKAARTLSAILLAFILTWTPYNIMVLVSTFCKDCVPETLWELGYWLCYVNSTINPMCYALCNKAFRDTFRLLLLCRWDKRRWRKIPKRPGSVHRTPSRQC
- protocol.summary: Functional mobilization of intracellular calcium (FLIPR), M1-CHO cells
- Assay type: cell-based
- condition.parameters: 100% efficacy is the maximum response obtained with the Carbachol control

{"compound": "CC(=O)N1CCC2(CCN(C3CCN(c4cnccn4)CC3)CC2)c2ccccc21", "property": "Emax", "value.measured": "25 to 100%"}
{"compound": "CC(C)OC(=O)N1C2CCC1CC(N1CCC3(CC1)CN(C(=O)N(C)C)c1ccccc13)C2 (centres unmarked)", "property": "Emax", "value.measured": "25 to 100%"}
{"compound": "COC(=O)N1CCC(N2CCC3(CCN(C(C)=O)c4ccccc43)CC2)CC1", "property": "Emax", "value.measured": "25 to 100%"}
{"compound": "CC(=O)N1CCC2(CCN(C3CCN(c4nc(C)cs4)CC3)CC2)c2ccccc21", "property": "Emax", "value.measured": "25 to 100%"}
{"compound": "C#CCCOC(=O)N1C2CCC1CC(N1CCC3(CC1)CN(C(=O)N(C)C)c1ccccc13)C2 (centres unmarked)", "property": "Emax", "value.measured": "25 to 100%"}

Ask | Request - read-out Emax | tested on M1 muscarinic receptor (Homo sapiens, UniProt P11229) | compound CC#CCOC(=O)N1C2CCC1CC(N1CCC3(CC1)CN(C(=O)N(C)C)c1ccccc13)C2 (centres unmarked)
Reply | 25 to 100%

Ask | Request - read-out Emax | tested on M1 muscarinic receptor (Homo sapiens, UniProt P11229) | compound CCC#CCOC(=O)N1CCC(N2CCC3(CC2)CN(C(=O)N(C)C)c2ccccc23)CC1
Reply | 25 to 100%

Ask | Request - read-out Emax | tested on M1 muscarinic receptor (Homo sapiens, UniProt P11229) | compound CC(=O)N1CCC2(CCN(C3CCN(c4nncs4)CC3)CC2)c2ccccc21
Reply | 25 to 100%
